System: NOMO1
procedure details: cell viability relative to DMSO control; higher = less cytotoxic
condition description: HPLM + 10% dialyzed FBS; 48 h; 0.00234 µM
endpoint name: cell viability (%)
One number for each entry, in %.

Consider the worked cases shown below.
>>> readout_number("CC1(C)CCC(=C(CN2CCN(CC2)C3=CC=C(C=C3)C(=O)N[S+]([O-])(=O)C4=CC(=C(N[C@H](CCN5CCOCC5)CSC6=CC=CC=C6)C=C4)[S+]([O-])(=O)C(F)(F)F)\\C1)/C7=CC=C(Cl)C=C7")
132
>>> readout_number("Clc1cc(Cl)cc(CNc2ncncc2-c2ccc3c(c2)OCO3)c1")
85.8
>>> readout_number("Cc1cc(Nc2nc(N[C@@H](C)c3ncc(F)cn3)ncc2Cl)n[nH]1")
95

Hi, could you look up cell viability for each item in my list?
1. O=C(CO)N1CCC(c2n[nH]c(-c3ccc(Cl)cc3)c2-c2ccncn2)CC1
2. OCc1ccc(-c2nn(Cc3ccccc3)c3ccccc23)o1
3. [NH2][Pt]([NH2])([Cl])[Cl]

Reply text:
1. 121
2. 101
3. 110
